Entries and their Percent Control
- Test system: LRRK2(G2019S);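 further: KINOMEscan scanMAX binding as percent activity remaining versus control; lower means stronger binding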
- runParameters: Compound Concentration (nM):1000
Give just the number in %; leave the unit off.

compound	assayedSystem	reportedEndpoint	measuredResult
NS(=O)(=O)c1ccc(Nc2ncc(-c3ccccc3)o2)cc1 [GW572399X]	LRRK2(G2019S)	Percent Control	78

Recorded Percent Control of NS(=O)(=O)c1ccc(N/N=C2\C(=O)Nc3ccc(Cl)cc32)cc1 [GW280670X] , please.
70

Recorded Percent Control of Nc1ncnc2occ(-c3ccc(NC(=O)Nc4cc(C(F)(F)F)ccc4F)cc3)c12 [GW770249X] , please.
81

Percent Control for CN(C)c1cc2c(Nc3ccc4c(cnn4Cc4ccccc4)c3)ncnc2cn1 [GW282974X] ?
93

Suppose we examine the compound NS(=O)(=O)c1ccc(N/N=C2\C(=O)Nc3ccc(C(=O)NCCc4c[nH]cn4)cc32)cc1 [GW300660X] ; what Percent Control value has been reported?
71

What value of measured Percent Control is listed for Cl.O=C(Nc1ccc(Oc2ccc3[nH]c(NC(=O)c4ccccc4)nc3c2)cc1)Nc1cc(C(F)(F)F)ccc1F [GW709042A] ?
68

For the compound COc1cccc(-c2c[nH]c3c(N/N=C/c4ccncc4)ncnc23)c1 [GW814408X] , what Percent Control is on record?
89

Fill in: Percent Control of COc1cc2ncn(-c3cc(O[C@H](C)c4ccccc4Cl)c(C(N)=O)s3)c2cc1OC [GSK237701A] is ___
69
